The origin of these recorded values is PubChem BioAssay (NCI).

# Experimental Details: NCI Yeast Anticancer Drug Screen. Data for the rad50EPP+ strain (AID 151);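 also: 0% = growth of vehicle-treated control cultures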
# Experimental Setup: S. cerevisiae rad50 mutant strain, at 3.7 µM, stronger effect = higher value
About 79,000 compounds went through this panel and 15% of them were active in at least one assay; those are over-represented in the sample as a whole.
Parameter: growth inhibition (%)
# number only, unit % dropped from output

Can you share its growth inhibition? I mean this compound: O=[N+]([O-])c1ccc(=S)[nH]c1
-2

Any idea what its growth inhibition is? The compound is COc1ccc(/C=C/C(=O)C(C)(C)Br)cc1
93

What value of measured growth inhibition is listed for O=C(NNc1ccnc2cc(Cl)ccc12)/C(=C\c1ccccc1Cl)NC(=O)c1ccccc1 ?
55

I have this compound here, CCCCCCCC1(N=[N+]=[N-])C(=O)c2ccccc2N(C)C1=O (stereo unspecified) , and I need its recorded growth inhibition.
15

// lookup growth inhibition for O=C1Nc2ccccc2/C1=C/COc1ccccc1
58

Dear colleague, I am looking for the recorded growth inhibition of the following compound: OC(c1ccc(F)cc1)(c1ccc(F)cc1)C1CC1
-17

Query: growth inhibition; subject: CCOC(=O)C(NC(=O)c1ccccc1)(N1CCN(c2cc3c(cc2F)c(=O)c(C(=O)O)cn3C2CC2)CC1)C(F)(F)F (stereo unspecified)
0

Can you share its growth inhibition? I mean this compound: CN(CCc1ccccn1)c1ccc2c(c1)Cc1ccccc1-2
68

So what does the record say about growth inhibition for O=[n+]1c2ccc(Cl)cc2n([O-])c2ccc(Cl)cc21 ?
18

For the compound CC[C@@]1(O)C(=O)OCc2c1cc1n(c2=O)Cc2cc3c(CN(C)C)c(O)ccc3nc2-1 , what growth inhibition is on record?
29

Reported growth inhibition for Cc1cccc2c(C(O)CBr)cc(-c3ccc(Cl)cc3)nc12 (stereo unspecified) : what is it?
10

* * *

Hi there, I'd appreciate the recorded growth inhibition for every entry that follows.
# Experimental Details: NCI Yeast Anticancer Drug Screen. Data for the rad50 strain (AID 155);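 also: 0% = growth of vehicle-only cultures of the same strain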
# Experimental Setup: S. cerevisiae rad50 strain growth inhibition; at 100.0 µM; stronger effect = higher value
About 79,000 compounds went through this panel and 15% of them were active in at least one assay; those are over-represented in the sample as a whole. The source made the active and inactive calls. No stated cut-off is given here; in the data, active means growth inhibition above about 70%; inactive means the rest.

Could you share which growth inhibition value was measured for NC(=O)NN=C(CS)CS ?
89% (active)

Please give the measured growth inhibition for this compound: Cc1ccc(CSC(N)=Nc2ccccc2)cc1C
30% (inactive)

# get_value(readout='growth inhibition', item= O=C(O)CNc1ccc(Cl)c(Cl)c1 )
98% (active)

Could you tell me which growth inhibition is on file for CCCCCCCCC/C=C/C=C/C(=O)NCC(=O)NC1C(O)C(O)C(Nc2ncnc3nc[nH]c23)OC1C(O)CO (stereo not drawn) ?
-24% (inactive)

Requested field: growth inhibition. Item: O=C(O)C1OC1(c1cccc(Cl)c1)c1ccccc1Cl (stereo not drawn)
88% (active)

Bench note: what growth inhibition did CC1CCN(CCC(=O)c2ccc(Cl)cc2)CC1 show?
56% (inactive)

Which growth inhibition is listed for O=C(O)c1cccc(-c2c3ccc(=O)cc-3oc3cc(O)ccc23)c1 ?
90% (active)

Return reported growth inhibition; argument: Clc1ccccc1C1OC1c1ccccc1Cl (stereo not drawn)
14% (inactive)

For the compound CC(CC(C)(C)[N+](C)(C)C)[N+](C)(C)C (stereo not drawn) , what growth inhibition is on record?
0% (inactive)

So what's the measured growth inhibition for this one? Cc1ccc(C2C(Cl)C(=O)N2n2cnc3ccccc3c2=O)cc1 (stereo not drawn)
-20% (inactive)

Recorded growth inhibition of CCCCCCCCCCCCCCC(C(=O)[O-])[n+]1ccccc1 (stereo not drawn) , please.
97% (active)

Form field: reported growth inhibition of CN(C)C[C@H]1CC[C@@H](CN(C)C)C1=O
78% (active)

I'd like to know its growth inhibition. The compound in question is CNC(=O)OCc1c(COC(=O)NC)c(-c2ccc(Cl)c(Cl)c2)n2c1CCC2
97% (active)

Record request: growth inhibition value, item [N-]=[N+]=NC1=C(c2ccccn2)C(=O)c2cccc3cccc1c23
71% (active)

Any idea what growth inhibition was measured for COc1ccc2sc3cccc(NCCN(C)C)c3c(=O)c2c1 ?
31% (inactive)

Using the record for Nc1nc(Cl)c(Cl)c(Cl)n1 , report its growth inhibition.
99% (active)

Entry under review: CN(C)c1ccc(Sc2ccc3nc(N)nc(N)c3c2)cc1 . Reported growth inhibition?
40% (inactive)

Item Cc1ccc(N)c(S)c1 has what recorded growth inhibition?
94% (active)

Item NC(=NCc1ccccc1)N/N=C\c1ccnc2ccccc12 has what recorded growth inhibition?
39% (inactive)

Look up growth inhibition: CC(C)C1=CCC2C(=C1)CCC1C(C)(C(=O)O)CCCC21C (stereo not drawn) (tested in a mixture with another compound)
92% (active)

Would you mind telling me what growth inhibition value was observed for NC1=NS(=O)(=O)N=C(N)C1=Cc1ccc([N+](=O)[O-])o1 ?
97% (active)

Which value of growth inhibition has been reported for c1ccc2c(c1)sc1nc3ccncc3nc12 in the records?
87% (active)

Requested field: growth inhibition. Item: CN(C)CCOc1ccc2c(c1)C/C(=C/c1ncc([N+](=O)[O-])n1C)C2=O
91% (active)

What does the record list as growth inhibition for O=C1C2CC[C@@H]3C(=O)C(Cl)(Cl)[C@@H]3CCC2C1(Cl)Cl (stereo partly drawn) ?
37% (inactive)

Looking for the measured growth inhibition of O=C(Nc1ccc(Cl)cc1)OCC#CCCl , can you help?
28% (inactive)

Find the recorded growth inhibition belonging to NC(=S)N/N=C\c1nccc2ccccc12 and report it.
97% (active)

Quick one: growth inhibition of O=[N+]([O-])c1cc(CCl)ccc1CCl ?
97% (active)

Fill in: growth inhibition of O=C1OC(CCl)CN1/N=C/c1ccc([N+](=O)[O-])o1 (stereo not drawn) is ___
80% (active)

Could you share which growth inhibition value was measured for O=C(N=Nc1ccccc1Cl)NNc1ccccc1Cl ?
13% (inactive)

Requested field: growth inhibition. Item: OC(COc1cccc2ccccc12)CN1CCOCC1 (stereo not drawn)
36% (inactive)

Need growth inhibition of Cn1c(N)nc(-c2ccc(Cl)cc2)c1SSc1c(-c2ccc(Cl)cc2)nc(N)n1C , thanks.
97% (active)

Request the reported growth inhibition associated with C/C(=N\NC(=S)SCc1ccccc1)c1ccccn1
92% (active)

Record request: growth inhibition value, item CCCS(=O)(=O)Nc1ccc(Nc2c3ccccc3nc3ccccc23)c(OC)c1
91% (active)

Entry CCCCCCCCCCCCCCCCCCNC has what growth inhibition?
87% (active)

Could you share which growth inhibition value was measured for N#Cc1ccc(C2NN=CC23C(=O)c2ccccc2OC3c2ccccc2)cc1 (stereo not drawn) ?
3% (inactive)

Please give the measured growth inhibition for this compound: COC(=O)c1ccc([N+](=O)[O-])c(O)c1
97% (active)

Which value of growth inhibition has been reported for Nc1ccc2c(c1)C(=O)c1cccc(N)c1C2=O in the records?
93% (active)

Any idea what its growth inhibition is? The compound is CC[C@@]1(O)C(=O)OCc2c1cc1n(c2=O)Cc2cc3c(CN(C)C)c(O)ccc3nc2-1
92% (active)

For CCC(C(=O)O)C1=C(c2ccccc2)CCc2ccccc21 (stereo not drawn) , what is its reported growth inhibition?
91% (active)

What growth inhibition value was documented for this compound, C(CCSC1=NCCN1)CSC1=NCCN1 (tested in a mixture with another compound) ?
98% (active)

Any idea what growth inhibition was measured for O=C(c1ccc(Cl)cc1Cl)C(Cl)Cl ?
98% (active)

Value lookup for growth inhibition; key = O=C1c2cc([N+](=O)[O-])ccc2-c2cccc(F)c21
83% (active)

What value of measured growth inhibition is listed for CCC/C(Cl)=N\OC(=O)Nc1cccc(C(F)(F)F)c1 ?
26% (inactive)

Recorded growth inhibition for O=C1C=CC(=C(c2ccccc2)c2ccccc2)c2ccccc21 , please?
10% (inactive)

Name the reported growth inhibition value associated with the compound CCC[CH2][Ge]([CH2]CCC)([CH2]CCC)[O]C(=O)C(OC)c1ccccc1 (stereo not drawn)
98% (active)

Need growth inhibition of CC(C)/C(Cl)=N\OC(=O)Nc1ccc(F)cc1 , thanks.
81% (active)

What value of growth inhibition has been recorded for this entry: CC(=O)Cc1ccc[cH-]1.[Fe+2].c1cc[cH-]c1
62% (inactive)

Requested field: growth inhibition. Item: CCOC(=O)c1cnc2cc(C(F)(F)F)ccc2c1N=[N+]=[N-]
83% (active)

* * *

# Experimental Details: NCI Yeast Anticancer Drug Screen. Data for the bub3 strain (AID 167)
# Experimental Setup: S. cerevisiae bub3 mutant strain, at 1.2 µM, stronger effect = higher value
This is part of a sample that, as a whole, favours compounds with a hit. Of some 79,000 tested, about 15% had one in any assay.
Parameter: growth inhibition (%)
Quick reminder: number only, in %, skip the unit.

Query: growth inhibition; subject: CN(C)Cc1cc(N=Nc2ccc(Cl)cc2)cc(CN(C)C)c1O
4

Query: growth inhibition; subject: Cc1nc(-[n+]2nc(-c3ccncc3)nn2-c2ccccc2)sc1C
-1

Please report the recorded growth inhibition for CC(C)/C(Cl)=N\OC(=O)Nc1ccc(F)cc1 .
13

I would be grateful if you could share the reported growth inhibition for CC(C)C1=CC2=C[C@H](O)[C@H]3C(C)(C)CCC[C@]3(C)C2=C(O)C1=O .
2

What value of growth inhibition has been reported for the following compound? Cc1ccc(Cl)c2[nH]c(-c3ccccc3)cc(=O)c12
-2

Consider the compound CC(=O)Nc1ccc(SC(C)=O)cc1 and give its measured growth inhibition.
-25

Request the reported growth inhibition associated with O=C(OCC=C1CCCC1)c1cc([N+](=O)[O-])cc([N+](=O)[O-])c1
-6

# query: growth inhibition of entry CN(Cc1cnc2nc(N)nc(N)c2n1)c1ccc(C(=O)N[C@@H](CCC(=O)O)C(=O)O)cc1
2

So what's the measured growth inhibition for this one? C[S+](C)C1(c2ccccc2)C(=O)c2ccccc2C1=O
1

I'd like to know its growth inhibition. The compound in question is CCS(=O)(=O)c1ccc(/C=C/C=N/NC(=S)NCC(C)C)cc1
3

I am curious: what growth inhibition value has been reported for O=[N+]([O-])CC(SCc1ccccc1)c1ccc2c(c1)OCO2 (configuration not stated) ?
-28

growth inhibition for S=C(Nc1ccc(Cl)cc1)SC1CCCCC1 ?
-18
